Test: collision cross section of modified peptide (TIMS, N2, iRT-aligned); higher = larger / more extended gas-phase ion
Details: charge state: 2; modification: Crotonyl
Cut-off 400 Å² on collision cross section, inclusive. At or above means Met; below means Not met.

Consider the worked cases shown below.
### Prompt Exam item: decide whether the reported collision cross section for LDHLAEKFR [_LDHLAEK(Crotonyl)FR_] is at least 400 Å².
### Response Not met

### Prompt Exam item: decide whether the reported collision cross section for DTGEKLTVAENEAETK [_DTGEK(Crotonyl)LTVAENEAETK_] is at least 400 Å².
### Response Met

### Prompt Exam item: decide whether the reported collision cross section for VGIDTPDIDIHGPEGKLK [_VGIDTPDIDIHGPEGK(Crotonyl)LK_] is at least 400 Å².
### Response Met

### Prompt Exam item: decide whether the reported collision cross section for VGEFSGANKEK [_VGEFSGANK(Crotonyl)EK_] is at least 400 Å².
### Response Not met

Others:
### Prompt Exam item: decide whether the reported collision cross section for DHLSDKESK [_DHLSDK(Crotonyl)ESK_] is at least 400 Å².
### Response Not met

### Prompt Exam item: decide whether the reported collision cross section for VGTASVLQPVKK [_VGTASVLQPVK(Crotonyl)K_] is at least 400 Å².
### Response Not met

### Prompt Exam item: decide whether the reported collision cross section for LQEKVESAQSEQK [_LQEK(Crotonyl)VESAQSEQK_] is at least 400 Å².
### Response Met

### Prompt Exam item: decide whether the reported collision cross section for AGQKLIDVNHYAK [_AGQK(Crotonyl)LIDVNHYAK_] is at least 400 Å².
### Response Met

### Prompt Exam item: decide whether the reported collision cross section for IGNSYFKEEK [_IGNSYFK(Crotonyl)EEK_] is at least 400 Å².
### Response Not met

### Prompt Exam item: decide whether the reported collision cross section for GAEKTEVAEPR [_GAEK(Crotonyl)TEVAEPR_] is at least 400 Å².
### Response Not met

----------
Test: collision cross section of modified peptide (TIMS, N2, iRT-aligned); higher = larger / more extended gas-phase ion
Details: charge state: 2; modification: Trimethyl (K)
Cut-off 400 Å² on collision cross section, inclusive. At or above means satisfied; below means not satisfied.

### Prompt Exam item: decide whether the reported collision cross section for LQLEIDQKK [_LQLEIDQK(Trimethyl (K))K_] is at least 400 Å².
### Response not satisfied

### Prompt Exam item: decide whether the reported collision cross section for SLFFGGKGAPLQR [_SLFFGGK(Trimethyl (K))GAPLQR_] is at least 400 Å².
### Response satisfied

### Prompt Exam item: decide whether the reported collision cross section for VLTANSNPSSPSAAKR [_VLTANSNPSSPSAAK(Trimethyl (K))R_] is at least 400 Å².
### Response satisfied

### Prompt Exam item: decide whether the reported collision cross section for SPSDSGYSYETIGKTTK [_SPSDSGYSYETIGK(Trimethyl (K))TTK_] is at least 400 Å².
### Response satisfied

### Prompt Exam item: decide whether the reported collision cross section for SKHLQEQLNELK [_SK(Trimethyl (K))HLQEQLNELK_] is at least 400 Å².
### Response satisfied

### Prompt Exam item: decide whether the reported collision cross section for ASAISIKLGSSK [_ASAISIK(Trimethyl (K))LGSSK_] is at least 400 Å².
### Response not satisfied

### Prompt Exam item: decide whether the reported collision cross section for SEASSEFAKK [_SEASSEFAK(Trimethyl (K))K_] is at least 400 Å².
### Response not satisfied

----------
Experiment: collision cross section of modified peptide (TIMS, N2, iRT-aligned); higher = larger / more extended gas-phase ion
Conditions: charge state: 2; modification: Biotin
Recorded collision cross section for the following sequences
Only the number, expressed in Å², is required.

Memo: GSLEKGSPEDK [_GSLEK(Biotin)GSPEDK_] , reported collision cross section: 382.87

Memo: IQQELQTAKK [_IQQELQTAK(Biotin)K_] , reported collision cross section: 397.29

Memo: GFALVGVGSEASSKK [_GFALVGVGSEASSK(Biotin)K_] , reported collision cross section: 423.88

Memo: FDDTNPEKEEAK [_FDDTNPEK(Biotin)EEAK_] , reported collision cross section: 416.55

Memo: SLGEPAAGEGSAKR [_SLGEPAAGEGSAK(Biotin)R_] , reported collision cross section: 403.03

----------
Test: collision cross section of modified peptide (TIMS, N2, iRT-aligned); higher = larger / more extended gas-phase ion
Settings: charge state: 2; modification: Glutarylation
Recorded collision cross section for the following sequences
Only the number, expressed in Å², is required.

Here are 5 sequences together with their reported answers.
Memo: SKHLQEQLNELK [_SK(Gluratylation)HLQEQLNELK_] , reported collision cross section: 423.49

Memo: LQAAYAGDKADDIQK [_LQAAYAGDK(Gluratylation)ADDIQK_] , reported collision cross section: 440.38

Memo: TVSKVDDFLANEAK [_TVSK(Gluratylation)VDDFLANEAK_] , reported collision cross section: 427.28

Memo: IPQEKCILQTDVK [_IPQEK(Gluratylation)CILQTDVK_] , reported collision cross section: 437.23

Memo: DYSAPVNFISAGLKK [_DYSAPVNFISAGLK(Gluratylation)K_] , reported collision cross section: 441.44

Now look at this entry.
Memo: ITLSKHQNVQLPR [_ITLSK(Gluratylation)HQNVQLPR_] , reported collision cross section: 422.98

----------
Test: collision cross section of modified peptide (TIMS, N2, iRT-aligned); higher = larger / more extended gas-phase ion
Settings: charge state: 2; modification: Formyl
Cut-off 400 Å² on collision cross section, inclusive. At or above means YES; below means NO.

### Prompt Exam item: decide whether the reported collision cross section for PANEKATDDYHYEK [_PANEK(Formyl)ATDDYHYEK_] is at least 400 Å².
### Response YES

Others:
### Prompt Exam item: decide whether the reported collision cross section for SDSGKPYYYNSQTK [_SDSGK(Formyl)PYYYNSQTK_] is at least 400 Å².
### Response YES

### Prompt Exam item: decide whether the reported collision cross section for LEQVEKELLR [_LEQVEK(Formyl)ELLR_] is at least 400 Å².
### Response NO

### Prompt Exam item: decide whether the reported collision cross section for KFGVLSDNFK [_K(Formyl)FGVLSDNFK_] is at least 400 Å².
### Response NO

### Prompt Exam item: decide whether the reported collision cross section for DYSSGFGGKYGVQADR [_DYSSGFGGK(Formyl)YGVQADR_] is at least 400 Å².
### Response YES

### Prompt Exam item: decide whether the reported collision cross section for TTEETSKPK [_TTEETSK(Formyl)PK_] is at least 400 Å².
### Response NO

### Prompt Exam item: decide whether the reported collision cross section for AAQASDLEKIHLDEK [_AAQASDLEK(Formyl)IHLDEK_] is at least 400 Å².
### Response YES

----------
Experiment: collision cross section of modified peptide (TIMS, N2, iRT-aligned); higher = larger / more extended gas-phase ion
Conditions: charge state: 3; modification: Acetyl (K)
MEASURED_PARAMETER: collision cross section (Å²)
Only the number, expressed in Å², is required.

Here are 2 sequences together with their reported answers.
Memo: VNIGQGSHPQKVK [_VNIGQGSHPQK(Acetyl (K))VK_] , reported collision cross section: 478.98

Memo: LFVGGIKEDTEEHHLR [_LFVGGIK(Acetyl (K))EDTEEHHLR_] , reported collision cross section: 543.04

Now look at this entry.
Memo: IDLPAENSNSETIIITGKR [_IDLPAENSNSETIIITGK(Acetyl (K))R_] , reported collision cross section: 569.63

----------
Test: collision cross section of modified peptide (TIMS, N2, iRT-aligned); higher = larger / more extended gas-phase ion
Conditions: charge state: 2; modification: Formyl
MEASURED_PARAMETER: collision cross section (Å²)
Only the number, expressed in Å², is required.

Memo: ALASIDSKLNQAK [_ALASIDSK(Formyl)LNQAK_] , reported collision cross section: 395.38

Memo: IINEPTAAAIAYGLDKK [_IINEPTAAAIAYGLDK(Formyl)K_] , reported collision cross section: 458.24

Memo: TLQKQSVVYGGK [_TLQK(Formyl)QSVVYGGK_] , reported collision cross section: 387.94

Memo: DESFLGKLGGTLAR [_DESFLGK(Formyl)LGGTLAR_] , reported collision cross section: 408.46

Memo: DHLSDKESK [_DHLSDK(Formyl)ESK_] , reported collision cross section: 345.83

Others:
Memo: SSFAYKDQNENR [_SSFAYK(Formyl)DQNENR_] , reported collision cross section: 394.76

Memo: SLKLNTAEDAK [_SLK(Formyl)LNTAEDAK_] , reported collision cross section: 369.44
